testedSystem: human GPR131 (Homo sapiens)
Construct: expressed in transfected cells
protocolNotes: Stimulation of cAMP (agonism of GPR131), FRET cAMP assay
Type: cell-based
assayConditions: 0.5 h; 1.1 μM compound; compared to maximal stimulatory activity of lithocholic acid (LCA) determined at 3.3 μM; stable cell line expressing human GPR131; 37° C. for 30 minutes; read-out: Percent Activity @ 1.1 μM (of 3.3 uM LCA) (%)
Reported activation at 1.1 µM values follow for various molecules
readout: activation at 1.1 µM (%)

INSERT INTO assay_data (smilesrepr, resultvalue) VALUES
  ('Fc1ccc(-c2nn3ccccc3c2-c2nncn2-c2ccc(Cl)cc2)cc1', 99.1),
  ('Clc1ccc(Cl)c(-c2nc3ccccn3c2-c2nncn2-c2ccc3ncccc3c2)c1', 93.9),
  ('Cn1ncc2ccc(-n3cnnc3-c3c(-c4cc(Cl)ccc4Cl)nc4ccccn34)cc21', 95.7),
  ('Clc1ccccc1-c1nc2ccccn2c1-c1nncn1-c1ccc2cn[nH]c2c1', 91.4),
  ('Clc1ccc(Cl)c(-c2nc3ccccn3c2-c2nncn2-c2ccc3[nH]ncc3c2)c1', 93.3),
  ('Clc1ccc(-n2nnnc2-c2c(-c3cc(Cl)ccc3Cl)nc3n2CCCC3)cc1', 94.6),
  ('Clc1ccc(-n2cnnc2-c2c(-c3cc(Cl)ccc3Cl)nc3ccccn23)cc1', 99.9),
  ('COc1nnc(-c2c(-c3cc(Cl)ccc3Cl)nc3ccccn23)n1-c1ccc(Cl)cc1', 97.1),
  ('FC(F)(F)c1ccc(-n2ccnc2-c2c(-c3cc(Cl)ccc3Cl)nc3cccnn23)cc1', 100),
  ('Clc1ccc(-n2ncnc2-c2c(-c3cc(Cl)ccc3Cl)nc3ccccn23)cc1', 99.9),
  ('Clc1ccc(-n2nnnc2-c2c(-c3cc(Cl)ccc3Cl)nc3cccnn23)cc1', 100),
  ('Cn1ncc2cc(-n3cnnc3-c3c(-c4cc(Cl)ccc4Cl)nc4ccccn34)ccc21', 99.9),
  ('FC(F)(F)c1ccc(-n2ccnc2-c2c(-c3cc(Cl)ccc3Cl)nc3ccccn23)cc1', 100),
  ('CSc1nnc(-c2c(-c3cc(Cl)ccc3Cl)nc3ccccn23)n1-c1ccc(Cl)cc1', 86.8),
  ('Clc1ccc(-n2cnnc2-c2c(-c3ccccc3Cl)nc3ccccn23)cc1', 99.4),
  ('Cc1nc(-c2c(-c3cc(Cl)ccc3Cl)nc3ccccn23)n(-c2ccc(Cl)cc2)n1', 97.4),
  ('Clc1ccc(-n2nnnc2-c2c(-c3cc(Cl)ccc3Cl)nc3cnccn23)cc1', 88.4);

---

testedSystem: human GPR131 (Homo sapiens)
Construct: expressed in transfected cells
Sequence (Q8TDU6 1-330): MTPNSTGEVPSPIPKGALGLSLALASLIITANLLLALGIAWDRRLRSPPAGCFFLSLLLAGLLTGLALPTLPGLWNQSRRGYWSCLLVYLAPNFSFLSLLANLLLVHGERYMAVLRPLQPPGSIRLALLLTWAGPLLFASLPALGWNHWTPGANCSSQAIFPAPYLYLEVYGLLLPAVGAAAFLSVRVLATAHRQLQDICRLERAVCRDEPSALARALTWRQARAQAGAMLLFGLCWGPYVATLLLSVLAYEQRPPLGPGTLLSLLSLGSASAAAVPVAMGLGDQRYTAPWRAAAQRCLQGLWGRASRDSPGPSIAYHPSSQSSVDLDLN
protocolNotes: Stimulation of cAMP (agonism of GPR131), FRET cAMP assay
Type: cell-based
assayConditions: 0.5 h; 1.1 μM compound; compared to maximal stimulatory activity of lithocholic acid (LCA) determined at 3.3 μM; stable cell line expressing human GPR131; 37° C. for 30 minutes; read-out: Percent Activity @ 1.1 μM (of 3.3 uM LCA) (%)
Reported activation at 1.1 µM values follow for various compounds
readout: activation at 1.1 µM

INSERT INTO measurements (compound, testedsystem, readout, resultvalue) VALUES
  ('Clc1ccc(Cl)c(-c2nc3ccccn3c2-c2nncn2-c2ccc3cn[nH]c3c2)c1 [Compound 516]', 'human GPR131 (Homo sapiens)', 'activation at 1.1 µM', '99.8%'),
  ('Fc1ccccc1-n1cnnc1-c1c(-c2cc(Cl)ccc2Cl)nc2ccccn12 [Compound 534]', 'human GPR131 (Homo sapiens)', 'activation at 1.1 µM', '96.8%'),
  ('CN(C)c1ccc(-n2cnnc2-c2c(-c3cc(Cl)ccc3Cl)nc3ccccn23)cc1 [Compound 510]', 'human GPR131 (Homo sapiens)', 'activation at 1.1 µM', '100%'),
  ('Clc1ccc(-n2nnnc2-c2c(-c3cc(Cl)ccc3Cl)nc3occn23)cc1 [Compound 551]', 'human GPR131 (Homo sapiens)', 'activation at 1.1 µM', '95.7%'),
  ('N#Cc1ccc(-n2cnnc2-c2c(-c3cc(Cl)ccc3Cl)nc3ccccn23)cc1 [Compound 515]', 'human GPR131 (Homo sapiens)', 'activation at 1.1 µM', '100%'),
  ('Clc1ccc(Cl)c(-c2nc3ccccn3c2-c2nncn2-c2ccc(-c3ccccc3)cc2)c1 [Compound 531]', 'human GPR131 (Homo sapiens)', 'activation at 1.1 µM', '88.8%'),
  ('FC(F)(F)c1ccc(-n2nnnc2-c2c(-c3cc(Cl)ccc3Cl)nc3ccccn23)cc1 [Compound 562]', 'human GPR131 (Homo sapiens)', 'activation at 1.1 µM', '97.9%'),
  ('N#Cc1ccc(-n2nnnc2-c2c(-c3cc(Cl)ccc3Cl)nc3ccccn23)cc1 [Compound 566]', 'human GPR131 (Homo sapiens)', 'activation at 1.1 µM', '99.7%');
